- system-under-test: hCA IX (Homo sapiens, UniProt Q16790)
- assay-method-text: biochemical
- experimental-setup: KI hCA I / KI hCA IX
measure: Selectivity ratio I/IX
Write the number on its own, no unit after it.

As a guide, the following entries are already answered.
NS(=O)(=O)c1ccc(NCC(=O)NN=C2C(=O)N(CC(=O)Nc3ccccc3Br)c3ccccc32)cc1 [4g] = 0.829
Cc1ccc(NC(=O)CN2C(=O)C(=NNc3ccc(S(N)(=O)=O)cc3)c3ccccc32)cc1 [3d] = 7.672

Lookup: Looking for the measured Selectivity ratio I/IX of NS(=O)(=O)c1ccc(NCC(=O)NN=C2C(=O)N(CC(=O)Nc3ccc(Cl)cc3)c3ccccc32)cc1 [4b] , can you help?
Found: 2.149

Lookup: Value lookup for Selectivity ratio I/IX; key = NS(=O)(=O)c1ccc(NCC(=O)NN=C2C(=O)N(CC(=O)Nc3ccccc3Cl)c3ccccc32)cc1 [4f]
Found: 0.819
